Exercise: for every item that follows, state its recorded NE % (percentage of neutrophils in the total number of white blood cells).
tested on: peripheral blood leukocytes of normal mice; experiment: Effects on peripheral blood leukocytes of normal mice (peripheral blood routine test); format: in vivo; details: day 0 (before administration), compounds 20 mg/kg ig once a day, G-CSF 22.5 ug/kg sc once a day
Numeric answer only, unit % assumed.

Specify reported NE % (percentage of neutrophils in the total number of white blood cells) for the molecule shown: COc1ccc(-n2c3cssc-3c(NC(=O)OCc3ccco3)c2=O)c(OC)c1
24.36

Specify reported NE % (percentage of neutrophils in the total number of white blood cells) for the molecule shown: COc1ccc(-n2c3cssc-3c(NC(=O)Oc3cccnc3)c2=O)c(OC)c1
31.23

Specify reported NE % (percentage of neutrophils in the total number of white blood cells) for the molecule shown: COc1ccc(-n2c3cssc-3c(NC(=O)OC(C)C)c2=O)c(OC)c1
23.31

Specify reported NE % (percentage of neutrophils in the total number of white blood cells) for the molecule shown: COc1ccc(-n2c3cssc-3c(NC(=O)Oc3ccc(Cl)cc3)c2=O)c(OC)c1
23.24

Specify reported NE % (percentage of neutrophils in the total number of white blood cells) for the molecule shown: COc1ccc(-n2c3cssc-3c(NC(=O)OCC3CCCO3)c2=O)c(OC)c1 (centres unmarked)
34.02

Specify reported NE % (percentage of neutrophils in the total number of white blood cells) for the molecule shown: COc1ccc(-n2c3cssc-3c(NC(=O)OCCCl)c2=O)c(OC)c1
18.79

Specify reported NE % (percentage of neutrophils in the total number of white blood cells) for the molecule shown: COc1ccc(-n2c3cssc-3c(NC(=O)N3CCOCC3)c2=O)c(OC)c1
26.86

Specify reported NE % (percentage of neutrophils in the total number of white blood cells) for the molecule shown: CCCOC(=O)Nc1c2sscc-2n(-c2ccc(OC)cc2OC)c1=O
23.62

---

test system: peripheral blood leukocytes of normal mice; assay: Effects on peripheral blood leukocytes of normal mice (peripheral blood routine test); type: in vivo; conditions: day 3, compounds 20 mg/kg ig once a day, G-CSF 22.5 ug/kg sc once a day
Decision: NE % (percentage of neutrophils in the total number of white blood cells) >= 40% yields Fulfilled, all other cases yield Not fulfilled.

Please indicate if the recorded NE % (percentage of neutrophils in the total number of white blood cells) for COC(=O)Nc1c2sscc-2n(-c2ccc(OC)cc2OC)c1=O meets or exceeds 40%.
Not fulfilled

Please indicate if the recorded NE % (percentage of neutrophils in the total number of white blood cells) for COc1ccc(-n2c3cssc-3c(NC(=O)N3CCOCC3)c2=O)c(OC)c1 meets or exceeds 40%.
Fulfilled

Please indicate if the recorded NE % (percentage of neutrophils in the total number of white blood cells) for COc1ccc(-n2c3cssc-3c(NC(=O)OCc3ccccc3)c2=O)c(OC)c1 meets or exceeds 40%.
Fulfilled

Please indicate if the recorded NE % (percentage of neutrophils in the total number of white blood cells) for COc1ccc(-n2c3cssc-3c(NC(=O)OCc3ccco3)c2=O)c(OC)c1 meets or exceeds 40%.
Not fulfilled

Please indicate if the recorded NE % (percentage of neutrophils in the total number of white blood cells) for COc1ccc(-n2c3cssc-3c(NC(=O)OC3CCCC3)c2=O)c(OC)c1 meets or exceeds 40%.
Not fulfilled

Please indicate if the recorded NE % (percentage of neutrophils in the total number of white blood cells) for C=CCOC(=O)Nc1c2sscc-2n(-c2ccc(OC)cc2OC)c1=O meets or exceeds 40%.
Fulfilled

Please indicate if the recorded NE % (percentage of neutrophils in the total number of white blood cells) for COc1ccc(-n2c3cssc-3c(NC(=O)OCC(C)C)c2=O)c(OC)c1 meets or exceeds 40%.
Fulfilled

Please indicate if the recorded NE % (percentage of neutrophils in the total number of white blood cells) for CCCCCOC(=O)Nc1c2sscc-2n(-c2ccc(OC)cc2OC)c1=O meets or exceeds 40%.
Fulfilled

Please indicate if the recorded NE % (percentage of neutrophils in the total number of white blood cells) for CCOC(=O)Nc1c2sscc-2n(-c2ccc(OC)cc2OC)c1=O meets or exceeds 40%.
Fulfilled

Please indicate if the recorded NE % (percentage of neutrophils in the total number of white blood cells) for CCCOC(=O)Nc1c2sscc-2n(-c2ccc(OC)cc2OC)c1=O meets or exceeds 40%.
Not fulfilled

Please indicate if the recorded NE % (percentage of neutrophils in the total number of white blood cells) for COc1ccc(-n2c3cssc-3c(NC(=O)NCc3ccccc3)c2=O)c(OC)c1 meets or exceeds 40%.
Not fulfilled

Please indicate if the recorded NE % (percentage of neutrophils in the total number of white blood cells) for COc1ccc(-n2c3cssc-3c(NC(=O)OC(C)c3ccccc3)c2=O)c(OC)c1 (centres unmarked) meets or exceeds 40%.
Not fulfilled

Please indicate if the recorded NE % (percentage of neutrophils in the total number of white blood cells) for COc1ccc(-n2c3cssc-3c(NC(=O)OC(C)C)c2=O)c(OC)c1 meets or exceeds 40%.
Fulfilled

Please indicate if the recorded NE % (percentage of neutrophils in the total number of white blood cells) for COc1ccc(OC(=O)Nc2c3sscc-3n(-c3ccc(OC)cc3OC)c2=O)cc1 meets or exceeds 40%.
Not fulfilled

---

test system: peripheral blood leukocytes of normal mice; assay: Effects on peripheral blood leukocytes of normal mice (peripheral blood routine test); type: in vivo; details: day 3, compounds 20 mg/kg ig once a day, G-CSF 22.5 ug/kg sc once a day
Exercise: for every item that follows, state its recorded NE % (percentage of neutrophils in the total number of white blood cells).
Numeric answer only, unit % assumed.

Specify reported NE % (percentage of neutrophils in the total number of white blood cells) for the compound shown: COc1ccc(-n2c3cssc-3c(NC(=O)OCCCl)c2=O)c(OC)c1
40.47

Specify reported NE % (percentage of neutrophils in the total number of white blood cells) for the compound shown: COc1ccc(-n2c3cssc-3c(NC(=O)OCC3CCCO3)c2=O)c(OC)c1 (stereo not drawn)
38.98

Specify reported NE % (percentage of neutrophils in the total number of white blood cells) for the compound shown: COc1ccc(-n2c3cssc-3c(NC(=O)Oc3cccnc3)c2=O)c(OC)c1
38.98
